Assay: Particle size and PDI by dynamic light scattering
Type: physicochemical
Details: Table 4
assay.metric: PDI

• CCCCCCCC/C=C\CCCCCCCCNC(=O)C(O)CN1CCN(CCN(CC(O)C(=O)NCCCCCCCC/C=C\CCCCCCCC)CC(O)C(=O)NCCCCCCCC/C=C\CCCCCCCC)CC1 (stereo not shown) = 0.13 ± 0.03

Measured PDI, CCCCCCCCCCOC(=O)C(O)CN(Cc1ccc(CN(CC(O)C(=O)OCCCCCCCCCC)CC(O)C(=O)OCCCCCCCCCC)cc1)CC(O)C(=O)OCCCCCCCCCC (stereo not shown) : 0.22 ± 0.00

Measured PDI, CCCCCCCCCCCCOC(=O)C(O)CN[C@H]1CC[C@@H](N(CC(O)C(=O)OCCCCCCCCCCCC)CC(O)C(=O)OCCCCCCCCCCCC)CC1 (stereo partly shown) : 0.18 ± 0.01

---

Assay: Particle size and PDI by dynamic light scattering
Format: physicochemical
Conditions: Table 4
Collected PDI values appear next to each entry.
API doc: respond with a numeric literal and nothing else, no unit.

Worked cases, answers included:
• CCCCCCCCCCCCOC(=O)C(O)CN(Cc1ccc(CN(CC(O)C(=O)OCCCCCCCCCCCC)CC(O)C(=O)OCCCCCCCCCCCC)cc1)CC(O)C(=O)OCCCCCCCCCCCC (stereo not shown) = 0.19
• CCCCCCCCCCOC(=O)C(O)CN(CCN1CCN(CCN(CC(O)C(=O)OCCCCCCCCCC)CC(O)C(=O)OCCCCCCCCCC)CC1)CCN(CC(O)C(=O)OCCCCCCCCCC)CC(O)C(=O)OCCCCCCCCCC (stereo not shown) = 0.15
• CC/C=C\CCOCOCCCCCCOC(=O)C(O)CN(CCCN1CCN(CCCN(CC(O)C(=O)OCCCCCCOCOCC/C=C\CC)CC(O)C(=O)OCCCCCCOCOCC/C=C\CC)CC1)CC(O)C(=O)OCCCCCCOCOCC/C=C\CC (stereo not shown) = 0.10
• CCCCCCCC/C=C\CCCCCCCCNC(=O)C(O)CN(CCCN1CCN(CCCN(CC(O)C(=O)NCCCCCCCC/C=C\CCCCCCCC)CC(O)C(=O)NCCCCCCCC/C=C\CCCCCCCC)CC1)CC(O)C(=O)NCCCCCCCC/C=C\CCCCCCCC (stereo not shown) = 0.10
• CCCCCCOC(C)OCCCCCCOC(=O)C(O)CN1CCN(CCN(CC(O)C(=O)OCCCCCCOC(C)OCCCCCC)CC(O)C(=O)OCCCCCCOC(C)OCCCCCC)CC1 (stereo not shown) = 0.08
• CCCC/C=C\CCOCOCCCCOC(=O)C(O)CN1CCN(CCN(CC(O)C(=O)OCCCCOCOCC/C=C\CCCC)CC(O)C(=O)OCCCCOCOCC/C=C\CCCC)CC1 (stereo not shown) = 0.05

Could you now look at the following molecule, please?
Measured PDI, CCCCCCCCCCCCNC(=O)C(O)CN(Cc1ccc(CN(CC(O)C(=O)NCCCCCCCCCCCC)CC(O)C(=O)NCCCCCCCCCCCC)cc1)CC(O)C(=O)NCCCCCCCCCCCC (stereo not shown) : 0.14
